Assay: Single dose PK in healthy subjects (Cohorts 1, 2, S1 and S2), plasma
Format: in vivo, human
Conditions: human, plasma, iv, 240 mg, 240 mg single IV infusion; 3 hr; read-out: Plasma Concentration of Cmpd A, Q3
property label: concentration at 3 h (ng/mL)
Value expressed in ng/mL; do not type the unit.

Which concentration at 3 h is reported for this compound? COC(=O)N1CCC[C@H](NS(C)(=O)=O)[C@@H]1CO[C@H]1CC[C@@H](c2ccccc2)CC1 [Compound A]
515

###

Assay: Single dose PK in healthy subjects (Cohorts 1, 2, S1 and S2), plasma
Type: in vivo, human
Conditions: human, plasma, iv, 7 mg, 7 mg single IV infusion, healthy subjects; read-out: AUCinf Mean
property label: AUC(0-inf) (ng·h/mL)
Value expressed in ng·h/mL; do not type the unit.

Which AUC(0-inf) is reported for this compound? COC(=O)N1CCC[C@H](NS(C)(=O)=O)[C@@H]1CO[C@H]1CC[C@@H](c2ccccc2)CC1
143

These data points were gathered from patent US20220339143A1.
